Ref: ChEMBL document CHEMBL3301472

test: MMV: MTT Cytotoxicity Assay Day 7 pi of Assay #7 (compound washed out Day 1 pi), U87-CD4-CXCR4 cells, % cell death @ 5mM compound; format: toxicity, cell-based; conditions: human, u87-cd4-cxcr4, 5000 µM
assay-metric: % Cell Death
Provide a numeric answer; units are not to be included.

See these solved cases before continuing.
# compound, reported-result
rows = [
    ("Br.CCn1c2c(c(=N)c3c1CCC3)CCCC2", -30),
    ("CCOC(=O)c1cn(CC)c2cc(N3CCCCC3)c(F)cc2c1=O", 97),
    ("Cn1c(C(=O)c2cccc3ccccc23)nc2ccccc21", -12),
    ("CCOC(=O)c1cnc2c(C)cccc2c1Nc1ccc(C(C)=O)cc1", 78),
    ("COc1ccc(Nc2nc(N/N=C/c3ccc(O)cc3)nc(Nc3ccc([N+](=O)[O-])cc3)n2)cc1", 50),
]

Input: Recorded % Cell Death for `COc1cccc(NC(=O)[C@H](C(C)C)n2c(=O)[nH]c3ccccc3c2=O)c1` , please?
Output: 5

Input: Recorded % Cell Death for `C=CCc1c(C)nc2ccccc2c1O` , please?
Output: 38

Input: Recorded % Cell Death for COc1ccc(C(=O)C(CCC(CNC(C)(C)C)C(=O)c2ccc(OC)cc2)CNC(C)(C)C)cc1 (stereo not given) , please?
Output: 75

Input: Recorded % Cell Death for `COc1cccc(-c2nn(C)c3sc(C(=O)NCCN4CCN(c5ccccc5F)CC4)cc23)c1` , please?
Output: -4

Input: Recorded % Cell Death for CCOc1cc2c(cc1OCC)C(c1cc(Cl)c(O)c(OCC)c1)NCC2 (stereo not given) , please?
Output: -20

====

Entries annotated with measured % Cell Death
experiment: MMV: MTT Cytotoxicity Assay Day 7 pi of Assay #6 (compound washed out Day 1 pi), U87-CD4-CCR5 cells, % cell death @ 5mM compound; assay type: toxicity, cell-based; conditions: human, u87-cd4-ccr5, 5000 µM
Provide a numeric answer; units are not to be included.

See these solved cases before continuing.
# compound-string, % Cell Death
rows = [
    ("COc1ccc(-c2cc3c(nn2)-c2ccccc2C3=O)cc1", 30),
    ("COc1ccc(CN2CCN(Cc3ccccc3)CC2)c(O)c1", -1),
    ("COc1cccc(Nc2nc(N)c3ccccc3n2)c1.Cl", 13),
    ("CCN(CC)CCNc1ncnc2c1[nH]c1ccc(Br)cc12", -1),
    ("COc1ccc(Nc2cc(C)nc(NCc3ccccc3)n2)cc1", 30),
]

Input: Recorded % Cell Death for `Cc1ccc(CSCc2ccc(C(=O)NC3CC3)o2)cc1` , please?
Output: 18

Input: Recorded % Cell Death for `O=C(Nc1ccc(C23CC4CC(CC(c5ccccc5)(C4)C2)C3)cc1)c1cccs1` , please?
Output: 109

Input: Recorded % Cell Death for `Nc1ccn([C@@H]2O[C@H](CO)[C@@H](O)[C@H]2O)c(=O)n1` , please?
Output: -9

Input: Recorded % Cell Death for `CCN(CC)c1cc(C)c2cc(NC(=O)c3cccc(OC)c3)ccc2n1` , please?
Output: 3

Input: Recorded % Cell Death for `Cn1c(C(=O)c2cccc3ccccc23)nc2ccccc21` , please?
Output: -37

Input: Recorded % Cell Death for `COc1ccc2sc(N(Cc3cccnc3)C(=O)c3ccc(C#N)cc3)nc2c1` , please?
Output: 2

====

assay: MMV: MTT Cytotoxicity Assay Day 3 pi, U87-CD4-CXCR4 cells, % cell death @ 5mM compound; assay type: toxicity, cell-based; settings: human, u87-cd4-cxcr4, 5000 µM
assay-metric: % Cell Death
Provide a numeric answer; units are not to be included.

Input: Recorded % Cell Death for `CN(C)c1ccc(C=Cc2nc(=O)c3ccccc3o2)cc1` , please?
Output: 38

Input: Recorded % Cell Death for `COc1ccc(-c2cn3c(C(=O)Nc4ccccc4Cl)c(-c4ccccc4)c4c3n2CCCC4)cc1` , please?
Output: 35

Input: Recorded % Cell Death for `CCc1c(C)c(=N)c2ccccc2n1C.I` , please?
Output: 100

Input: Recorded % Cell Death for `CC1CCN(Cc2ccc(NC(=O)c3cc4ccc5cccnc5c4[nH]3)cc2)CC1` , please?
Output: 23

Input: Recorded % Cell Death for `Cc1ccc(CN2CCC(C(=O)Nc3ccc(-c4cc5ccccc5[nH]4)cc3)CC2)o1` , please?
Output: 20

Input: Recorded % Cell Death for Cc1sc(NC(=O)c2ccco2)c(C(c2cccnc2)N2CCC(Cc3ccccc3)CC2)c1C (stereo not drawn) , please?
Output: 88

Input: Recorded % Cell Death for `CCOC(=O)c1c(NC(=O)c2ccccc2)sc2c(O)c(CN(CC)CC)ccc12` , please?
Output: -8

====

experiment: MMV: MTT Cytotoxicity Assay Day 7 pi of Assay #7 (compound washed out Day 1 pi), U87-CD4-CXCR4 cells, % cell death @ 5mM compound; assay type: toxicity, cell-based; conditions: human, u87-cd4-cxcr4, 5000 µM
Entries annotated with measured % Cell Death
Provide a numeric answer; units are not to be included.

# compound, assay-metric, reported-result
rows = [
    ("CC(C)(C)c1ccc(C(=O)Nc2nc3ccccc3s2)cc1", "% Cell Death", -23),
]

Input: Recorded % Cell Death for `COc1ccc2nc(C)cc(Nc3cccc(O)c3)c2c1.Cl` , please?
Output: 0

Input: Recorded % Cell Death for `Cc1ccc(NC(=O)Nc2cccc(Cl)c2)cc1F` , please?
Output: -22

Input: Recorded % Cell Death for `COc1cccc(C=Cc2nc(=O)c3ccccc3o2)c1OC` , please?
Output: -19

Input: Recorded % Cell Death for OC(CNC1CCCC1)Cn1c2ccccc2c2ccccc21 (stereo not given) , please?
Output: -15

Input: Recorded % Cell Death for `Cc1ccc(-c2cc3nc4c(c(O)n3n2)CCCC4)cc1` , please?
Output: 52

Input: Recorded % Cell Death for `Cc1cccc(Nc2nc(N)c3ccccc3n2)c1.Cl` , please?
Output: -15

Input: Recorded % Cell Death for COCCN(C(=O)Cc1cccs1)C(C(=O)NCc1ccc(OC)cc1)c1ccc(C(C)C)cc1 (stereo not given) , please?
Output: -10

Input: Recorded % Cell Death for `Br.Cc1ccc(C)c(-c2csc(Nc3ccc(C)c(C)c3)n2)c1` , please?
Output: 39

Input: Recorded % Cell Death for `CCOC(=O)c1cnc2ccc(Cl)cc2c1NCCCN(C)C` , please?
Output: -14

Input: Recorded % Cell Death for `Cc1cc(Nc2ccc3ccccc3c2)n2ncnc2n1` , please?
Output: -16

Input: Recorded % Cell Death for `COc1cc(OC)cc(N2C(=O)N(Cc3ccc(C(C)(C)C)cc3)c3ccccc3S2(=O)=O)c1` , please?
Output: -10

====

experiment: MMV: MTT Cytotoxicity Assay Day 7 pi of Assay #10 (NO washout), U87-CD4-CCR5 cells, % cell death @ 5mM compound; type: toxicity, cell-based; details: human, u87-cd4-ccr5, 5000 µM
Please use the following % Cell Death ranges when assigning a class: low bin = under 20, mid bin = from 20 up to 40, high bin = 40 and over

# compound, class
records = [
    ("CCOc1ccc2c(c1)CN(Cc1ccc(Cl)cc1)CO2", "low bin"),
    ("COc1ccc(C(=O)C(CCC(CNC(C)(C)C)C(=O)c2ccc(OC)cc2)CNC(C)(C)C)cc1 (stereo not given)", "high bin"),
    ("CCOC(=O)C1=C(C)N=c2sc(=Cc3ccccc3O)c(=O)n2C1c1ccc(OC)c2ccccc12 (stereo not given)", "high bin"),
]

Input: Would you mind sorting `COc1cc(OC)cc(C(=O)Nc2ccc(-c3nc4ccccc4[nH]3)cc2)c1` into the appropriate category?
Output: high bin

Input: Would you mind sorting CCC(C)NCC(O)(c1ccc(Cl)cc1)c1ccc(Cl)cc1 (stereo not given) into the appropriate category?
Output: mid bin

Input: Would you mind sorting `CC(C)(C)c1ccc(C(=O)Nc2nc3ccccc3s2)cc1` into the appropriate category?
Output: mid bin

====

assay: MMV: MTT Cytotoxicity Assay Day 7 pi of Assay #11 (NO washout), U87-CD4-CXCR4 cells, % cell death @ 5mM compound; format: toxicity, cell-based; details: human, u87-cd4-cxcr4, 5000 µM
assay-metric: % Cell Death
Provide a numeric answer; units are not to be included.

Input: Recorded % Cell Death for CC(O)(c1ccc(Cl)cc1)C(CN1CCCCC1)c1ccccc1.Cl (stereo not given) , please?
Output: -5

Input: Recorded % Cell Death for `O=C(NC1CCN(Cc2ccccc2)CC1)c1cc(C(=O)NC2CCN(Cc3ccccc3)CC2)cc(C(=O)NC2CCN(Cc3ccccc3)CC2)c1` , please?
Output: 71

Input: Recorded % Cell Death for `CCOc1ccc(Nc2ccnc3cc(Cl)ccc23)cc1` , please?
Output: -19

Input: Recorded % Cell Death for COc1cccc(O)c1CN1CCC2(CCCN(Cc3ccc(F)cc3)C2)C1 (stereo not given) , please?
Output: 6

Input: Recorded % Cell Death for `CCCc1c(CC)c(=N)c2ccccc2n1C` , please?
Output: -23
